B1: r16_88_TrROS_Hall (parent)
chain: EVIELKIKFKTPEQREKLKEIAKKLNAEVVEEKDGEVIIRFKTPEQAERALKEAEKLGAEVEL

Variants of: B1
Assay: folding stability dG (cDNA display proteolysis); higher = more stable
Details: PBS, room temperature
OUTCOME_MEASURE: folding stability dG (kcal/mol)
// return numeric value only (unit: kcal/mol, not printed)

Here's what some known entries look like.
E45P : 4.16
P12M : 4.53
E31S : 4.6
E36L : 4.61
Q46N : 4.26
N26W : 4.36
F9T : 3.73
A22G : 4.64

Please examine the following record next.
# variant `E48I` ; its folding stability dG = 4.17
